Provide the reported log10 kon of each item.
target: T1, AAV9 (adeno-associated virus 9); experiment: SPR, AAV amine-coupled to CM5 chip;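 note: nanobodies flowed as analyte at seven concentrations spanning 1–100 nM over immobilized AAV (500–800 RU), kinetic constants derived by fitting the binding curves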
T1 construct: also called adeno-associated virus serotype 9
Field: value | Transform: log10 | Quantity: kon | Unit: M⁻¹ s⁻¹

Query: Given A4-079 (VHH) VHH: VQLQESGGGLVQPGGSLRLSCAASGTRFSINTMGWYRQAPGKQRELVANVTPAGSTNYADSVKGRFTISRDNAKNTVYLQMNSLRPEDTAVYYCHVDELRDSSWTTSNLWGQGTQVTVSS , respond with its log10 kon.
Response: 3.13

Query: Given A4-055 (VHH) VHH: VQLQESGGGLVQPGGSLRLSCAASGSIFSINTMGWYRQAPGKQRELVAAVTRGGSTNYADSVKGRFTISRDNAKNTVYLQMNSLRPEDTAVYYCHVDEVRQSSWTTSNLWGQGTQVTVSS , respond with its log10 kon.
Response: 4.90

Query: Given A4-083 (VHH) VHH: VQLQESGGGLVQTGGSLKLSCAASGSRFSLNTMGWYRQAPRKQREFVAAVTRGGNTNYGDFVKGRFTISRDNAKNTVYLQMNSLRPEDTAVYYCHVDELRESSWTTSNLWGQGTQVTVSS , respond with its log10 kon.
Response: 4.85

Query: Given A4-072 (VHH) VHH: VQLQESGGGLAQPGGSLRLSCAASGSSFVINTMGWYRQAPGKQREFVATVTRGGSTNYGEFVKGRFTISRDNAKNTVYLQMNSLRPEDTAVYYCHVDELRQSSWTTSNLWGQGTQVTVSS , respond with its log10 kon.
Response: 5.15

Query: Given A4-051 (VHH) VHH: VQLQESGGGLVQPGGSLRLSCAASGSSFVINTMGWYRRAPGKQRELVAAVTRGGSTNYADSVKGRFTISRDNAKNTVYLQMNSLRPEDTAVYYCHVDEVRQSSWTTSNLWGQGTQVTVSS , respond with its log10 kon.
Response: 3.83

Query: Given A4-056 (VHH) VHH: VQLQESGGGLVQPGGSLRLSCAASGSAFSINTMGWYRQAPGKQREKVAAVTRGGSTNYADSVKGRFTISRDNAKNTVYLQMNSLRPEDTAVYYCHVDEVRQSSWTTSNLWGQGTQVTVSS , respond with its log10 kon.
Response: 4.96

Query: Given A4-089 (VHH) VHH: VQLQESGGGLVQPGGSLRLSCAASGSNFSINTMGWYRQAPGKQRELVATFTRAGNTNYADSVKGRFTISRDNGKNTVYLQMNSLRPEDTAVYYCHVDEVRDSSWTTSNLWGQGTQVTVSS , respond with its log10 kon.
Response: 5.25

Query: Given A4-076 (VHH) VHH: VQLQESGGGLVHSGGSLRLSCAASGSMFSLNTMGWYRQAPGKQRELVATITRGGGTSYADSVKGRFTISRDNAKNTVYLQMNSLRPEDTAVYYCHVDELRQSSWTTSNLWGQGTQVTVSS , respond with its log10 kon.
Response: 3.87

Query: Given A4-053 (VHH) VHH: VQLQESGGGLVQPGGSLRLSCAASGSIFIINTMGWYRRAPGKQRELVAAVTRGGSTNYADSVKGRFTISRDNAKNTVYLQMNSLRPEDTAVYYCHVDEVRQSSWTTSNLWGQGTQVTVSS , respond with its log10 kon.
Response: 5.27

Query: Given A4-078 (VHH) VHH: VQLQESGGGLVQPGGSLRLSCLASGTMFSLNTMGWYRQAPGKQRELVATVTRGGSTNYADFVKGRFTISRDNAKNTVYLQMNSLRPEDTAVYYCHVDEVRDSSWTTSNLWGQGTQVTVSS , respond with its log10 kon.
Response: 4.46

Query: Given A4-085 (VHH) VHH: VQLQESGGGLVQPGGSLRLSCAASGSRFSLNTMGWYRQAPGKQREFVAAVTRGGNTNYGDFVKGRFTISRDNAKNTVYLQMNSLRPEDTAVYYCHVDELRESSWTTSNLWGQGTQVTVSS , respond with its log10 kon.
Response: 3.35

Query: Given A4-063 (VHH) VHH: VQLQESGGGLVQPGGSLRLSCAASGRRFTINTMGWYRRAPGKQRELVATITRGGSTNYAGSVKGRFTISRDNPKNTVYLQMNSLRPEDTAVYYCHIDEVRQSSWTTSNLWGQGTQVTVSS , respond with its log10 kon.
Response: 4.69

Query: Given A4-058 (VHH) VHH: VQLQESGGGLVQPGGSLRLSCAASGSIFSINTMGWYRQAPAKQREIVATVTRDGSTNYAESVKGRFTISRDNAKNTVYLQMNSLRPEDTAVYYCHLDEVRQSTWTTSNLWGQGTQVTVSS , respond with its log10 kon.
Response: 5.29

Query: Given A4-092 (VHH) VHH: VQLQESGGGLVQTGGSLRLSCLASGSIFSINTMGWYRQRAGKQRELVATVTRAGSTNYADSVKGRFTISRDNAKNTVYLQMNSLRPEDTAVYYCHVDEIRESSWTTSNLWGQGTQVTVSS , respond with its log10 kon.
Response: 4.93

Query: Given A4-067 (VHH) VHH: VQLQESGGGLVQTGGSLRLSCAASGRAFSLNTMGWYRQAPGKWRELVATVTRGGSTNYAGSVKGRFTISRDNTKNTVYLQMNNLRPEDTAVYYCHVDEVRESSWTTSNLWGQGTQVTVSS , respond with its log10 kon.
Response: 3.52
